Item-by-item account of max response
assay: Cycloheximide Counterscreen for Small Molecule Inhibitors of Shiga Toxin; details: cell reporter, cycloheximide protein synthesis inhibition counterscreen; stronger effect = higher value; also: read at 38.3 µM for the half of the compounds with a filed dose; 0% is about no effect
Hit rate of the full screen: of about 300,000 compounds, about 37,000 (12%) were called active. This is one part of a sample in which actives are shown more often than they occur.
Property Name: max response (%)

compound=CC(C)(C)c1ccc(CN2C(=O)c3ccccc3S2(=O)=O)cc1 measured_result=17.5
compound=CCOc1ccccc1OCCCNCc1ccccc1 measured_result=-2.14
compound=COc1cc(NS(=O)(=O)c2ccc(NC(=S)NC(=O)c3ccc(Br)cc3)cc2)ncn1 measured_result=0.589
compound=CN(c1cccc(NC(=O)Nc2ccc(Cl)cc2)c1)S(C)(=O)=O measured_result=36.6
compound="Cc1ccc(C(C(=O)NCC2CCCO2)N(C(=O)c2snc(C(N)=O)c2N)c2ccc(C(C)C)cc2)o1 (stereo not given)" measured_result=8.94
compound="COc1ccccc1C1C(C#N)=C(N)Oc2c1c(-c1ccccc1)nn2-c1ccccc1 (stereo not given)" measured_result=10.5
compound=CN(c1cccc(NC(=O)c2ccc(CN3CCc4ccccc4C3)cc2)c1)S(C)(=O)=O measured_result=-1.55
compound=O=C1c2ccccc2S(=O)(=O)N1Cc1c(F)cccc1Cl measured_result=-0.645
compound=O=C1CN(Cc2ccccc2)S(=O)(=O)c2ccccc21 measured_result=-0.808
compound=Cc1ccc(N(CC(=O)Nc2cccc(N(C)S(C)(=O)=O)c2)S(C)(=O)=O)cc1 measured_result=-1.08
